meta.source: patent US20010044445A1

Listed compounds paired with reported melting point

Previously resolved entries follow.
compound: O=C(Nc1ccc(-n2nc(C(F)(F)F)cc2C(F)(F)F)cc1)Nc1ccc([N+](=O)[O-])cc1Cl [Example 41]
melting point: 229 to 230 °C
--
compound: Cc1nnsc1C(=O)Nc1ccc(-n2nccc2C)cc1 [Example 285]
melting point: 163 to 164 °C
--
compound: COc1ccccc1C(=O)Nc1ccc(-n2nc(C(F)(F)F)cc2C(F)(F)F)cc1 [Example 143]
melting point: 100 to 102 °C

Here is the next item to consider.
Q: Param item = O=C(Nc1ccc(-n2nc(C(F)(F)F)cc2C(F)(F)F)cc1)c1cccc([N+](=O)[O-])c1 [Example 140] ; retrieve measured melting point.
A: 203 to 204 °C
